These data points were gathered from ChEMBL document CHEMBL5154783.

Tested on: Nakaseomyces glabratus
MEASUREMENT DESCRIPTION: Antifungal activity against Candida glabrata clinical isolate assessed as fungal growth inhibition by CLSI based serial microbroth dilution method
Assay type: functional
MEASURED QUANTITY: MIC

Clc1ccc(CC2(Cn3ccnc3)COC(c3ccc(-c4ccsc4)cc3)=N2)cc1 (centres undefined) : > 64 µg/mL

Provide measured MIC value, entry: OC(Cn1cncn1)(Cn1cncn1)c1ccc(F)cc1F
4 µg/mL

Provide measured MIC value, entry: c1ccc(CC2(Cn3ccnc3)COC(c3ccc(-c4cncnc4)cc3)=N2)cc1 (centres undefined)
> 64 µg/mL

Provide measured MIC value, entry: Fc1ccc(CC2(Cn3ccnc3)COC(c3ccc(-c4ccsc4)cc3)=N2)c(F)c1 (centres undefined)
> 64 µg/mL

Provide measured MIC value, entry: c1ccc(CC2(Cn3ccnc3)COC(c3ccc4c(c3)OCO4)=N2)cc1 (centres undefined)
> 64 µg/mL

Provide measured MIC value, entry: CCC(C)n1ncn(-c2ccc(N3CCN(c4ccc(OCC5COC(Cn6cncn6)(c6ccc(Cl)cc6Cl)O5)cc4)CC3)cc2)c1=O (centres undefined)
0.125 µg/mL

Provide measured MIC value, entry: Fc1cccc(F)c1CC1(Cn2cnnn2)COC(c2ccc(-c3ccsc3)cc2)=N1 (centres undefined)
> 64 µg/mL

Provide measured MIC value, entry: Cc1ccc(CC2(Cn3ccnc3)COC(c3ccc(-c4ccsc4)cc3)=N2)cc1 (centres undefined)
> 64 µg/mL

Provide measured MIC value, entry: c1ccc(CC2(Cn3ccnc3)COC(c3ccc(-c4ccoc4)cc3)=N2)cc1 (centres undefined)
> 64 µg/mL

###

MEASUREMENT DESCRIPTION: Stability of the compound in human plasma assessed as half life measured after […] by LC-MS/MS analysis
Format: ADME, cell-free
Each entry below carries its reported half-life.

Fc1cccc(F)c1CC1(Cn2cncn2)COC(c2ccc(-c3ccsc3)cc2)=N1 (configuration not stated) : > 288 min

Provide measured half-life value, entry: Fc1cccc(F)c1CC1(Cn2ccnc2)COC(c2ccc(-c3ccsc3)cc2)=N1 (configuration not stated)
> 288 min
